Quick list: activity change, negative = cytotoxicity per entry.
Tested on: Tov-21-G
Test: Primary qHTS to identify gynecologic anti-cancer compounds using libraries of approved drugs and bioactive compounds (AID 1345084); also: % is scaled to controls: 0 for no effect and ±100 for the full control effect; nearly all actives have a fitted effect of over 55% in size
Details: Gynecologic cancer cell panel viability, ATPlite luminescence, 48 h; series mostly up to 57.5 µM
Results filed as inconclusive are left out. Activity calls are given as the source filed them. Calls follow the shape of the dose curve; as a rule, active = well fitted cell-killing curve with a large enough effect; inconclusive = small, poorly fitted or top-dose-only effect, or effect the other way; inactive = flat fitted curve, though single readings scatter.

C=CC(C)(O)CC/C=C(\C)C(=O)OC1C(O)C(CO)OC(OC(=O)C23CCC(C)(C)CC2C2=CCC4C5(C)CCC(OC6OC(COC7OCC(OC(C)=O)C(O)C7OC7OC(COC(C)=O)C(O)C(O)C7O)C(O)C(O)C6O)C(C)(C)C5CCC4(C)C2(C)C(O)C3O)C1OC1OCC(OC2OCC(O)C(OC3OCC(O)C(O)C3O)C2O)C(O)C1O (centres undefined): 0.14% [at 6.55 µM] (inactive)

[Q] Record request: activity change, negative = cytotoxicity value, item C[C@@H]1O[C@@H](O[C@@H]2[C@@H](O)[C@H](O[C@H]3CC[C@@]4(C)C(CC[C@]5(C)C4CC=C4[C@@H]6CC(C)(C)CC[C@]6(C(=O)O[C@@H]6O[C@H](CO)[C@@H](O)[C@H](O)[C@H]6O)CC[C@]45C)C3(C)C)O[C@H](C(=O)O)[C@H]2O)[C@H](O)[C@H](O)[C@H]1O (some centres undefined)
[A] 1.47% [at 11.6 µM] (inactive)

[Q] Record request: activity change, negative = cytotoxicity value, item CC1(C)CC[C@]2(C(=O)O[C@@H]3O[C@H](CO)[C@@H](O)[C@H](O)[C@H]3O)CC[C@]3(C)C(=CCC4[C@@]5(C)CC[C@H](O[C@@H]6O[C@H](C(=O)O)[C@@H](O)[C@H](O)[C@H]6O)C(C)(C)C5CC[C@]43C)C2C1 (some centres undefined)
[A] 5.62% [at 11.6 µM] (inactive)

[Q] Record request: activity change, negative = cytotoxicity value, item C[C@@H]1O[C@@H](O[C@H]2[C@H](O)[C@@H](O)[C@H](OC[C@H]3O[C@@H](OC(=O)[C@]45CCC(C)(C)C[C@H]4C4=CCC6[C@@]7(C)CC[C@H](O[C@@H]8OC[C@H](O)[C@H](O[C@@H]9O[C@H](CO)[C@@H](O)[C@H](O)[C@H]9O)[C@H]8O)[C@@](C)(CO)C7CC[C@@]6(C)[C@]4(C)CC5)[C@H](O)[C@@H](O)[C@@H]3O)O[C@@H]2CO)[C@H](O)[C@H](O)[C@H]1O (some centres undefined)
[A] 8.55% [at 6.55 µM] (inactive)

====

System: NIH3T3
Assay: Cytotoxic Profiling of Annotated Libraries Using Quantitative High-Throughput Screening (AID 1296008); also: % is scaled to controls: 0 for no effect and ±100 for the full control effect; nearly all actives have a fitted effect of over 60% in size
Conditions: Five cell lines viability, CellTiter-Glo ATP luminescence, 48-72 h; stronger effect = lower value
Inconclusive results are not listed.
Quick list: max response per entry.
# number only, unit % dropped from output

Consider the worked cases shown below.
CC1CC[C@]2(C(=O)O)CC[C@]3(C(=O)O)C(=CCC4[C@@]5(C)CC[C@H](O[C@@H]6O[C@H](CO)[C@@H](O)[C@H](O)[C@H]6O)C(C)(C)C5CC[C@]43C)C2C1C (some centres not stated): 2.56
C=CC1(C)C=C2C(=O)OC(=O)C3=C(CCCC3(C)C)C2(O)CC1 (configuration not stated): 0.193
CC1(C)CC[C@]2(C(=O)O)CC[C@]3(C)C(=CCC4[C@@]5(C)CC[C@H](O[C@@H]6O[C@H](C(=O)O)[C@@H](O[C@@H]7OC[C@@H](O)[C@H](O)[C@H]7O)[C@H](O)[C@H]6O)C(C)(C)C5CC[C@]43C)C2C1O (some centres not stated): -13.7
Cc1cccc(Oc2cnc(=O)[nH]c2)c1: -28.2
COc1ccc(CCC(=O)c2c(O)cc(O)cc2O[C@@H]2O[C@H](CO)[C@@H](O)[C@H](O)[C@H]2O)cc1: -8.41
Cc1cc(O)cc(O[C@@H]2O[C@H](CO)[C@@H](O)[C@H](O)[C@H]2O)c1: -8.17

Now turn to the next compound.
[Q] Record request: max response value, item COc1cccc(C(=O)N2CCN(C(=O)COc3cccc(C)c3)CC2)c1OC
[A] -5.08

====

System: HaCat
Experiment: Cytotoxic Profiling of Annotated Libraries Using Quantitative High-Throughput Screening (AID 1296008); also: % is scaled to controls: 0 for no effect and ±100 for the full control effect; nearly all actives have a fitted effect of over 60% in size
Details: Five cell lines viability, CellTiter-Glo ATP luminescence, 48-72 h; stronger effect = lower value
Records with an inconclusive call do not appear.
Quick list: max response per entry.
# number only, unit % dropped from output

Consider the worked cases shown below.
CC1=C2C3OC(=O)C(C)C3(O)CCC2(C)CCC1O (stereo not drawn): -12.8
CC1=C2C[C@H]3O[C@@]3(C)CCC3O[C@@]3(C)C[C@@]2(O)OC1=O (stereo partly drawn): -4.97
O=C(CC1C(=O)Nc2ccccc21)OC[C@H]1O[C@@H](OCCc2ccc(O)cc2)[C@H](O)[C@@H](O)[C@@H]1O (stereo partly drawn): -16.5
Cc1cc2c(F)c(Oc3ncnn4cc(OCC(C)O)c(C)c34)ccc2[nH]1 (stereo not drawn): -0.656
COC(=O)C1=C2Nc3ccccc3C23CCN2CCCC(C(C)O)(C1)C23 (stereo not drawn): -21.7

[Q] Record request: max response value, item C=CC(C)(CC/C=C(\C)C(=O)OC)OC1OC(COC(=O)CC(C)(O)CC(=O)O)C(OC2OC(CO)C(O)C(O)C2O)C(O)C1O (stereo not drawn)
[A] -0.66

[Q] Record request: max response value, item C[C@@H]1O[C@@H](OC[C@H]2O[C@@H](Oc3cc(O)cc4c3C(=O)C(O)(Cc3ccc(O)cc3)O4)[C@H](O)[C@@H](O)[C@@H]2O)[C@H](O)[C@H](O)[C@H]1O (stereo partly drawn)
[A] -8.78

[Q] Record request: max response value, item CC1C(OC(=O)c2ccccc2)C(O)C2C(C(=O)O)=COC(OC3OC(CO)C(O)C(O)C3O)C12 (stereo not drawn)
[A] -2.92

====

Tested on: OV90
Assay: Primary qHTS to identify gynecologic anti-cancer compounds using libraries of approved drugs and bioactive compounds (AID 1345084); also: % is scaled to controls: 0 for no effect and ±100 for the full control effect; nearly all actives have a fitted effect of over 55% in size
Conditions: Gynecologic cancer cell panel viability, ATPlite luminescence, 48 h; series mostly up to 57.5 µM
Results filed as inconclusive are left out. Activity calls are given as the source filed them. Calls come from the whole dose curve; as a rule, active = well fitted cell-killing curve with a large enough effect; inconclusive = small, poorly fitted or top-dose-only effect, or effect the other way; inactive = flat fitted curve, though single readings scatter. Where a SMILES comes first, the peptide text is derived from it. The star is where a group is joined. AFC = O=c1cc(C(F)(F)F)c2ccc(N*)cc2o1
Readout type: activity change, negative = cytotoxicity

CC(C)=CCC/C(C)=C/CO[C@@H]1O[C@H](CO)[C@@H](OC(=O)/C=C/c2ccc(O)cc2)[C@H](O[C@@H]2O[C@@H](C)[C@H](O)[C@@H](O)[C@H]2O)[C@H]1O: inactive
CC1(C)CC(=O)C2=C(C1)NC(=S)NC2c1cccc(O)c1 (stereo not drawn): inactive
CC(=O)N[C@@H](Cc1c[nH]c2ccccc12)C(=O)N[C@@H](CCC(=O)O)C(=O)N[C@@H](Cc1cnc[nH]1)C(=O)N[C@@H](CC(=O)O)C(=O)Nc1ccc2c(C(F)(F)F)cc(=O)oc2c1 (Ac-WEHD-{AFC}): inactive

====

Quick list: activity change, negative = cytotoxicity per entry.
Test system: Es-2
Assay: Primary qHTS to identify gynecologic anti-cancer compounds using libraries of approved drugs and bioactive compounds (AID 1345084); also: % is scaled to controls: 0 for no effect and ±100 for the full control effect; nearly all actives have a fitted effect of over 55% in size
Conditions: Gynecologic cancer cell panel viability, ATPlite luminescence, 48 h; series mostly up to 57.5 µM
Records with an inconclusive call do not appear. Activity calls are given as the source filed them. Calls come from the whole dose curve; as a rule, active = well fitted cell-killing curve with a large enough effect; inconclusive = small, poorly fitted or top-dose-only effect, or effect the other way; inactive = flat fitted curve, though single readings scatter.

CC1OC(OC2C(C)OC(OC3C(OC(=O)C45CCC(C)(C)CC4C4=CCC6C7(C)CCC(OC8OC(C(=O)O)C(O)C(O)C8OC8OC(CO)C(O)C(OC9OC(C)C(O)C(O)C9O)C8O)C(C)(CO)C7CCC6(C)C4(C)CC5)OC(CO)C(O)C3O)C(O)C2O)C(O)C(O)C1O (configuration not stated): 0.662% [at 6.55 µM] (inactive)

Now turn to the next molecule.
[Q] Record request: activity change, negative = cytotoxicity value, item CC1OC(OC2C(O)C(OC3CCC4(C)C(CCC5(C)C4CC=C4C6CC(C)(COC7OC(CO)C(O)C(O)C7O)CC(O)C6(C)CCC45C)C3(C)C)OC(C(=O)O)C2O)C(O)C(O)C1OC1OCC(O)C(O)C1O (configuration not stated)
[A] 8.83% [at 11.6 µM] (inactive)

====

Test system: HaCat
Assay: Cytotoxic Profiling of Annotated Libraries Using Quantitative High-Throughput Screening (AID 1296008); also: % is scaled to controls: 0 for no effect and ±100 for the full control effect; nearly all actives have a fitted effect of over 60% in size
Conditions: Five cell lines viability, CellTiter-Glo ATP luminescence, 48-72 h; stronger effect = lower value
Records with an inconclusive call do not appear. Active and inactive are the calls of the source. Calls follow the shape of the dose curve; as a rule, active = well fitted inhibition curve with a large enough effect; inconclusive = small, poorly fitted or top-dose-only effect; inactive = flat fitted curve, though single readings scatter.
Readout type: max response

Consider the worked cases shown below.
COc1cc2c(cc1OC)CC(=O)N(CCCNC[C@H]1Cc3cc(OC)c(OC)cc31)CC2: -2.44% (inactive)
O=C(/C=C/c1ccc(O)cc1)OC1[C@H](O)CC(O)(C(=O)O)C[C@H]1O (some centres not stated): 1.01% (inactive)
O=C1NC(Cc2ccccc2)C(=O)N2CCCC12 (configuration not stated): 2.36% (inactive)

[Q] Record request: max response value, item COC(=O)CC(O)CC(O)/C=C/c1c(C)ccc2c1C(O)CC(C)C2 (configuration not stated)
[A] -0.771% (inactive)

[Q] Record request: max response value, item CCC(Nc1ncnc2nc[nH]c12)c1nc2cccc(F)c2c(=O)n1-c1ccccc1 (configuration not stated)
[A] -6.65% (inactive)

[Q] Record request: max response value, item C=C1[C@H](OC(C)=O)[C@H]2[C@@H](OC(C)=O)[C@](C)(OC(C)=O)C[C@]2(OC(C)=O)C(=O)[C@H](C)/C=C/C(C)(C)C(=O)[C@H](OC(=O)C(C)CC)[C@H]1OC(C)=O (some centres not stated)
[A] -2.99% (inactive)

[Q] Record request: max response value, item CC12CCC(=O)C=C1C(O)CC1C2C(O)CC2(C)C1CC[C@]2(O)C(=O)CO (some centres not stated)
[A] 0.87% (inactive)

[Q] Record request: max response value, item CC(C)c1cc(C(=O)N2CC[C@@H](NC(=O)C3CC3)C2)n[nH]1
[A] 0.869% (inactive)

[Q] Record request: max response value, item CC1OC(OCC2OC(OC3CCC4(C)C(CCC5(C)C4CC=C4C6CC(C)(C)CCC6(C(=O)OC6OC(CO)C(O)C(O)C6O)CCC45C)C3(C)CO)C(O)C(O)C2O)C(O)C(O)C1O (configuration not stated)
[A] 2.13% (inactive)

[Q] Record request: max response value, item CC(C)(C)CCN1C[C@@H]2C(CNC(=O)c3cc(Cl)cc(Cl)c3)[C@@H]2C1 (some centres not stated)
[A] -17.8% (inactive)

The measurements presented in this section are drawn from PubChem BioAssay (NCATS).
